Just for reference, patent US20230255970A1 is where these values come from.

System: YAP1 overexpression in U2OS cells
Assay: Cell Painting morphological profile matching to YAP1/TAZ overexpression signature
Assay type: cell-based, human
Settings: Pearson correlation of Cell Painting signatures, U2OS cells
observable: Corr. to YAP1 cluster

compound | numeric-result
O=c1c(-c2ccc(O)cc2)coc2cc(O)ccc12 [BRD-K42095107] | 0.4583
COC(=O)C[C@H]1C[C@H]2c3cc(NS(=O)(=O)c4cccc(OC)c4)ccc3O[C@H]2[C@@H](CO)O1 [BRD-K68530167] | 0.494
O=C(NCC1CC1)[C@@H]1N[C@@H]2c3ccc(C4=CCCCC4)c(=O)n3C[C@@H]2[C@H]1CO [BRD-K37451830] | 0.4802
COc1ccc(Cc2nccc3cc(OC)c(OC)cc23)cc1OC [BRD-K15567136] | 0.4464
N#Cc1nn(-c2c(Cl)cc(C(F)(F)F)cc2Cl)c(N)c1[S+]([O-])C(F)(F)F (stereo not drawn) [BRD-A50675702] | 0.5102
O=C(Nc1ccncc1)Nc1c(Cl)cc(Cl)cc1Cl [BRD-K46678324] | 0.4284
COc1cccc(S(=O)(=O)N2C[C@H](O)COC[C@@H]3O[C@H](CC(=O)N4CCN(c5ccccc5)CC4)CC[C@H]32)c1 [BRD-K70003473] | −0.4195
O=C(C[C@H]1CC[C@@H]2[C@H](COC[C@@H](O)CN2Cc2ccc3c(c2)OCO3)O1)N1CCCCC1 [BRD-K41723088] | 0.4916
O=C(N[C@H]1CC[C@@H](CCNS(=O)(=O)c2ccc(F)cc2)O[C@H]1CO)C1CCOCC1 [BRD-K48052543] | 0.5099
Cc1ccc(S(=O)(=O)NC(=O)NN2CC3CCCC3C2)cc1 (stereo not drawn) [BRD-A61154809] | 0.4401
CCCNC(=O)N1[C@@H]2c3ccc(-c4ccccc4OC)c(=O)n3C[C@H]1[C@H](CO)[C@H]2C(=O)NCC [BRD-K39839146] | 0.4835
CO[C@@H]1CN(C)C(=O)c2cc(NC(=O)Nc3ccc(C(F)(F)F)cc3)ccc2OC[C@@H](C)NC[C@@H]1C [BRD-K34692511] | −0.4398
CO[C@H]1CN(C)C(=O)c2cc(NC(=O)C3CCCCC3)ccc2OC[C@@H](C)N(Cc2nccs2)C[C@@H]1C [BRD-K22874335] | 0.4904
Clc1nc(NCc2ccccc2)c2ccccc2n1 [BRD-K11758216, N-benzyl-2-chloroquinazolin-4-amine] | 0.5078
C[C@H]1CN([C@@H](C)CO)C(=O)CCCn2nncc2CO[C@H]1CN(C)C(=O)Nc1cccc(Oc2ccccn2)c1 [BRD-K19969618] | 0.5483
